meta.source: ChEMBL document CHEMBL5108067

Please respond with reported residual activity for every item in the list.
# target.under.test: Ubiquitin thioesterase OTUB1 (Homo sapiens)
# Sequence (Q96FW1 whole entry, the tested form may be a part): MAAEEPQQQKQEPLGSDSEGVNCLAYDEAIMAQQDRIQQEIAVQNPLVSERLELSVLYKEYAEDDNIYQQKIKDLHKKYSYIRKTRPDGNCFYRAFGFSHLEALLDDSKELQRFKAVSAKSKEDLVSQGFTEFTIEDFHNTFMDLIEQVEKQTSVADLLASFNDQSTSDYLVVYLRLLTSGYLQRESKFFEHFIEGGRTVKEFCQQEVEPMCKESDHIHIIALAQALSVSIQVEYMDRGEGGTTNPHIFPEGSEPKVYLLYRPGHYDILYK
# assay.notes: Inhibition of N-terminal His-6 tagged OTUB1 (40 to 271 residues) (unknown origin) expressed in Escherichia coli BL21 (DE3) cells at 10 nM using Ub-Rho measured after 0.5 to 3 hrs by fluorescence based Plate reader method relative to control
# protocol.conditions: time 0.5-3 hrs, values are per cent of control
Numbers only, in %.

Worked set:
                                   compound                         target_under_test  quantity_measured  quantitative_result
0  COc1ccc(-c2nc3c(o2)C(=O)c2ccccc2C3=O)c(C(F)(F)F)c1  Ubiquitin thioesterase OTUB1 (Homo sapiens)  residual activity                 84.9
1   Cc1ccc(-c2nc3c(o2)C(=O)c2ccccc2C3=O)cc1  Ubiquitin thioesterase OTUB1 (Homo sapiens)  residual activity                 66.9

Switching to the query record.
Need residual activity, item CN(C)CCOc1cccc(-c2nc3c(o2)C(=O)c2ccccc2C3=O)c1 66.7

* * *

# target.under.test: Ubiquitin carboxyl-terminal hydrolase 8 (Homo sapiens) (UniProt P40818)
# assay.notes: Inhibition of N-terminal His-6 tagged USP8 (734 to 1110 residues) (unknown origin) expressed in Escherichia coli BL21 (DE3) cells at 100 nM measured after 3 hrs by fluorescence based Plate reader method relative to control
# protocol.conditions: values are per cent of control
quantity.measured: residual activity (%)
Numbers only, in %.

Worked set:
>>> df
                                   compound  quantity_measured  unit_string  quantitative_result
0  CN1CCN(CCOc2cc(-c3nc4c(o3)C(=O)c3ccccc3C4=O)ccc2Cl)CC1  residual activity            %                 50.9
1  COc1ccc2c(c1)C(=O)c1nc(-c3cccc(OCCN(C)C)c3)[nH]c1C2=O  residual activity            %                 99.6
2  CN1CC[C@@H](Oc2cc(-c3nc4c(o3)C(=O)c3ccccc3C4=O)ccc2Cl)C1  residual activity            %                 24.9
3  COc1cc(Cl)cc(-c2nc3c(o2)C(=O)c2ccccc2C3=O)c1  residual activity            %                   24
4  O=C1c2ccccc2C(=O)c2oc(-c3ccccc3[N+](=O)[O-])nc21  residual activity            %                 21.6
5  CN1CC[C@@H](Oc2ccc(-c3nc4c(o3)C(=O)c3ccccc3C4=O)cc2Cl)C1  residual activity            %                 31.2

Please give residual activity, item by item, for the list that follows.
1. O=C1c2ccccc2C(=O)c2oc(-c3c(F)c(F)cc(F)c3F)nc21
2. COc1cc(F)cc(-c2nc3c([nH]2)C(=O)c2ccccc2C3=O)c1
3. O=C1c2ccccc2C(=O)c2oc(-c3cccc([N+](=O)[O-])c3)nc21
4. CN(C)CCOc1cccc(-c2nc3c(o2)C(=O)c2ccccc2C3=O)c1

[24.1, 85.2, 29.4, 31.7]

Please give residual activity, item by item, for the list that follows.
1. O=C1c2ccccc2C(=O)c2oc(-c3ccc(F)cc3)nc21
2. COc1ccc(-c2nc3c(o2)C(=O)c2ccccc2C3=O)c(C(F)(F)F)c1
3. COc1cccc(-c2nc3c(o2)C(=O)c2ccccc2C3=O)c1
4. COc1c(Cl)ccc(Cl)c1-c1nc2c(o1)C(=O)c1ccccc1C2=O
5. CN1CCN(CCOc2cc(Cl)cc(-c3nc4c(o3)C(=O)c3ccccc3C4=O)c2)CC1

[23.3, 18.6, 32.9, 35.6, 27.9]

Need residual activity, item O=C1c2ccccc2C(=O)c2[nH]c(-c3ccccc3)nc21 92.5

* * *

# target.under.test: Ubiquitin thioesterase OTUB1 (Homo sapiens)
# assay.notes: Destabilization of N-terminal His-6 tagged OTUB1 (40 to 271 residues) (unknown origin) expressed in Escherichia coli BL21 (DE3) cells assessed as reduction in melting temperature at 200 uM measured for 2 hrs in presence of dithiothreitol by SYPRO orange dye based thermal shift assay
Please respond with reported ΔTm for every item in the list.
Answers are plain numbers, in °C.

Please give ΔTm, item by item, for the list that follows.
1. CN1CC[C@@H](Oc2ccc(Cl)c(-c3nc4c(o3)C(=O)c3ccccc3C4=O)c2)C1
2. CN1CC[C@@H](Oc2ccc(Cl)c(-c3nc4c(o3)C(=O)c3ccccc3C4=O)c2F)C1
3. CN1CC[C@@H](Oc2ccc(F)c(-c3nc4c(o3)C(=O)c3ccccc3C4=O)c2Cl)C1

1: 1; 2: 1; 3: 2.5

* * *

# target.under.test: Ubiquitin carboxyl-terminal hydrolase 8 (Homo sapiens)
# Sequence (whole entry): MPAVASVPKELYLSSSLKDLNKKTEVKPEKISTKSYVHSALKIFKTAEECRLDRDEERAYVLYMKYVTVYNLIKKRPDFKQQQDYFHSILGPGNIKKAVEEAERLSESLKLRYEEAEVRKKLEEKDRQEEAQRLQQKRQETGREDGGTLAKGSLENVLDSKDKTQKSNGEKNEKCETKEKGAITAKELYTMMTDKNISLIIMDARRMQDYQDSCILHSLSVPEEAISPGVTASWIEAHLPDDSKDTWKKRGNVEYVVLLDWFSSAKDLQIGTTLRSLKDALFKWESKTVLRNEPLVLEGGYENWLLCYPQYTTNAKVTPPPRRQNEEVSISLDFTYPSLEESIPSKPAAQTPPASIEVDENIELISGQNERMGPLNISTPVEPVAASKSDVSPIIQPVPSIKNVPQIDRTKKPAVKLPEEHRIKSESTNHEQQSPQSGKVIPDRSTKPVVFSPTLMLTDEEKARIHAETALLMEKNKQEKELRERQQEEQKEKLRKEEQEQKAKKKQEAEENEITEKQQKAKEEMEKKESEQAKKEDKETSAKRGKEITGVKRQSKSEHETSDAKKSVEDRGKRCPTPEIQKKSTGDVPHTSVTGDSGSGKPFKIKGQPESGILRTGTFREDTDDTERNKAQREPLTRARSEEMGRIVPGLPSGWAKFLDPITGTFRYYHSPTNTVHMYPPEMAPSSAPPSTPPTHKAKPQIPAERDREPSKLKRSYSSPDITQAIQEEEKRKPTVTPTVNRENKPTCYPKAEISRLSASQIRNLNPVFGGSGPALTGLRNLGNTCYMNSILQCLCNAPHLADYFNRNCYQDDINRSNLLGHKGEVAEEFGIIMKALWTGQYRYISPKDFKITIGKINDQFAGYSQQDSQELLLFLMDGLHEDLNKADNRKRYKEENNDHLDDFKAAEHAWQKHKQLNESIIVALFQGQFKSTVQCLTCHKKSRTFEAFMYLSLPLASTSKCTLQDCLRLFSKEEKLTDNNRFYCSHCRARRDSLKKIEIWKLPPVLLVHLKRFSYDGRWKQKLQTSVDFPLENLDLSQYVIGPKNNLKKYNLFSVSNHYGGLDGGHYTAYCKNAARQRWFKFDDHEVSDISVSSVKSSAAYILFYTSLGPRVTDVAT
# assay.notes: Inhibition of N-terminal His-6 tagged USP8 (734 to 1110 residues) (unknown origin) expressed in Escherichia coli BL21 (DE3) cells at 10 nM measured after 3 hrs by fluorescence based Plate reader method relative to control
# protocol.conditions: values are per cent of control
Please respond with reported residual activity for every item in the list.
Answers are plain numbers, in %.

Worked set:
>>> df
                                   compound  quantitative_result
0  Cc1cccc(Cl)c1-c1nc2c(o1)C(=O)c1ccccc1C2=O                 40.1
1      O=C1c2ccccc2C(=O)c2oc(-c3cccnc3)nc21                 43.4
2  O=C1c2ccccc2C(=O)c2oc(-c3cccc(Cl)c3)nc21                 66.3

Please give residual activity, item by item, for the list that follows.
1. O=C1c2ccccc2C(=O)c2oc(-c3c(Cl)cccc3Cl)nc21
2. CN1CC[C@@H](Oc2ccc(F)c(-c3nc4c(o3)C(=O)c3ccccc3C4=O)c2Cl)C1
3. COc1cc(OC)cc(-c2nc3c(o2)C(=O)c2ccccc2C3=O)c1
4. O=C1c2ccccc2C(=O)c2oc(-c3c(F)ccc(F)c3Cl)nc21
5. COc1cc(Cl)cc(-c2nc3c(o2)C(=O)c2ccccc2C3=O)c1
6. O=C1c2ccccc2C(=O)c2[nH]c(-c3ccccc3)nc21
7. CN1CC[C@@H](Oc2cccc(-c3nc4c(o3)C(=O)c3ccccc3C4=O)c2F)C1

1: 44.6; 2: 21.7; 3: 72.2; 4: 52.4; 5: 49; 6: 92.5; 7: 71.6

Please give residual activity, item by item, for the list that follows.
1. Cc1ccccc1-c1nc2c(o1)C(=O)c1ccccc1C2=O
2. CN(C)CCOc1cccc(-c2nc3c([nH]2)C(=O)c2ccccc2C3=O)c1
3. O=C1c2ccccc2C(=O)c2oc(-c3ccc([N+](=O)[O-])cc3)nc21
4. CN1CC[C@@H](Oc2ccc(-c3nc4c(o3)C(=O)c3ccccc3C4=O)c(C(F)(F)F)c2)C1
5. CN1CC[C@@H](Oc2ccc(Cl)c(-c3nc4c(o3)C(=O)c3ccccc3C4=O)c2F)C1

[63.6, 88.7, 20.2, 63.2, 37.2]
